All values here come from the supplement of paper PMC10883282.

Tested on: HS729
Assay: relative viability vs DMSO control (72 h) (fraction); higher = more viable cells
Conditions: 10 µM
Catalogue of compounds with associated relative viability

| Structure Smiles | relative viability |
| --- | --- |
| C=CC(=O)Nc1cccc(Nc2nc(Nc3ccc(N4CCN(C(C)=O)CC4)cc3OC)ncc2C(F)(F)F)c1 | 0.343 |
| C[C@@H]1COC(Nc2ccc3ncnc(Nc4ccc(OCc5nccs5)c(Cl)c4)c3c2)=N1 | 0.76 |
| Cc1c(F)cc(C(=O)NC2CC2)cc1-c1ccc(C(=O)NCC(C)(C)C)cn1 | 0.809 |

====

Test system: HT1080
Assay: relative viability vs DMSO control (72 h) (fraction); higher = more viable cells
Settings: 3.333 µM
# note: exactly 1 is not below, so it is rule not met; use rule met for relative viability strictly under it

| Molecule | Answer Label |
| --- | --- |
| Cc1c(F)cc(C(=O)NC2CC2)cc1-c1ccc(C(=O)NCC(C)(C)C)cn1 [Losmapimod] | rule not met |
| COc1cc(OC)cc(N(CCNC(C)C)c2ccc3ncc(-c4cnn(C)c4)nc3c2)c1 [Erdafitinib] | rule met |
| C1=N/C2=N/c3ccc(OCCN4CCCC4)c(c3)COC/C=C/COCc3cccc(c3)C(=C1)N2 [Pacritinib] | rule met |
| C=CC(=O)Nc1cc(Nc2nccc(-c3cn(C)c4ccccc34)n2)c(OC)cc1N(C)CCN(C)C [Osimertinib] | rule met |
| C#Cc1cccc(Nc2ncnc3cc(OCCOC)c(OCCOC)cc23)c1 [Erlotinib] | rule not met |

====

Examples of molecules with documented relative viability follow.
Test system: A204
Assay: relative viability vs DMSO control (72 h) (fraction); higher = more viable cells
Settings: 0.00017 µM

| Molecule | System Tested | relative viability |
| --- | --- | --- |
| Cc1cccc(-c2[nH]c(CNc3ccccc3F)nc2-c2ccc3ncnn3c2)n1 [Vactosertib] | A204 | 1.02 |
| NC(=O)c1cccc2cn(-c3ccc([C@@H]4CCCNC4)cc3)nc12 [Niraparib] | A204 | 1.07 |
| Cc1ccc(NC(=O)c2ccc(CN3CCN(C)CC3)cc2)cc1Nc1nccc(-c2cccnc2)n1 [Imatinib] | A204 | 1.01 |
| CC[C@@H]1C(=O)N(C)c2cnc(Nc3ccc(C(=O)N[C@H]4CC[C@H](N5CCN(CC6CC6)CC5)CC4)cc3OC)nc2N1C(C)C [Volasertib] | A204 | 1.13 |
| CN1CCN(CCOc2cc(OC3CCOCC3)c3c(Nc4c(Cl)ccc5c4OCO5)ncnc3c2)CC1 [Saracatinib] | A204 | 1.03 |
| CCN(c1cc(-c2ccc(CN3CCOCC3)cc2)cc(C(=O)NCc2c(C)cc(C)[nH]c2=O)c1C)C1CCOCC1 [Tazemetostat] | A204 | 1.04 |
| Cc1nc(Nc2ncc(C(=O)Nc3c(C)cccc3Cl)s2)cc(N2CCN(CCO)CC2)n1 [Dasatinib] | A204 | 1.08 |
| CCCCCCCCCCCCCCCCCCOP(=O)([O-])OC1CC[N+](C)(C)CC1 [Perifosine] | A204 | 1.05 |
| CCN(CCCOc1ccc2c(Nc3cc(CC(=O)Nc4cccc(F)c4)[nH]n3)ncnc2c1)CCOP(=O)(O)O [Barasertib] | A204 | 1.05 |
| Cc1cn(-c2cc(NC(=O)c3ccc(C)c(Nc4nccc(-c5cnccn5)n4)c3)cc(C(F)(F)F)c2)cn1 [Radotinib] | A204 | 1.09 |
